Each entry below carries its reported selectivity entropy.
# Tested on: 222 human kinases
# procedure_details: Millipore kinase profiling (radioactive filter binding activity assay at [ATP] = KM,ATP) and selectivity metrics calculated from it
# Format: biochemical
# measurement_conditions: calculated from Millipore activity data (pEC50), [ATP] = KM,ATP

compound: Cc1cc(Nc2cc(N3CCN(C)CC3)nc(Sc3ccc(NC(=O)C4CC4)cc3)n2)[nH]n1 [VX-680, tozasertib]
selectivity entropy: 2.625
//
compound: COc1cc2c(N3CCN(C(=O)Nc4ccc(OC(C)C)cc4)CC3)ncnc2cc1OCCCN1CCCCC1 [MLN-518, tandutinib]
selectivity entropy: 1.300
//
compound: Cc1cn(-c2cc(NC(=O)c3ccc(C)c(Nc4nccc(-c5cccnc5)n4)c3)cc(C(F)(F)F)c2)cn1 [nilotinib]
selectivity entropy: 2.360
//
compound: CCN(CCO)CCCOc1ccc2c(Nc3cc(CC(=O)Nc4cccc(F)c4)[nH]n3)ncnc2c1 [AZD1152HQPA]
selectivity entropy: 1.366
//
compound: Cc1ccc(F)c(NC(=O)Nc2ccc(-c3cccc4[nH]nc(N)c34)cc2)c1 [ABT-869, linifanib]
selectivity entropy: 2.834
//
compound: O=C(NOC[C@H](O)CO)c1ccc(F)c(F)c1Nc1ccc(I)cc1F [PD-0325901]
selectivity entropy: 0.550
//
compound: Oc1cccc(-c2nc(N3CCOCC3)c3oc4ncccc4c3n2)c1 [PI-103]
selectivity entropy: 0.876
//
compound: O=c1ncn2nc(Sc3ccc(F)cc3F)ccc2c1-c1c(Cl)cccc1Cl [VX-745]
selectivity entropy: 0.590
//
compound: O=C(O)c1ccc(Nc2ncc3c(n2)-c2ccc(Cl)cc2C(c2c(F)cccc2F)=NC3)cc1 [MLN-8054]
selectivity entropy: 1.903
//
compound: Cn1cnc2c(F)c(Nc3ccc(Br)cc3Cl)c(C(=O)NOCCO)cc21 [AZD6244]
selectivity entropy: 0.020

---

# Tested on: 222 human kinases
# procedure_details: Millipore kinase profiling (radioactive filter binding activity assay at [ATP] = KM,ATP) and selectivity metrics calculated from it
# Format: biochemical
# measurement_conditions: calculated from Millipore activity data
Each entry below carries its reported S10x.
measure_name: S10x

compound: Cc1cn(-c2cc(NC(=O)c3ccc(C)c(Nc4nccc(-c5cccnc5)n4)c3)cc(C(F)(F)F)c2)cn1 [nilotinib]
measure_name: S10x
endpoint_value: 0.027
--
compound: Cc1cc(Nc2cc(N3CCN(C)CC3)nc(Sc3ccc(NC(=O)C4CC4)cc3)n2)[nH]n1 [VX-680, tozasertib]
measure_name: S10x
endpoint_value: 0.020
--
compound: O=c1ncn2nc(Sc3ccc(F)cc3F)ccc2c1-c1c(Cl)cccc1Cl [VX-745]
measure_name: S10x
endpoint_value: 0.005
--
compound: CCN(CC)CCNC(=O)c1c(C)[nH]c(/C=C2\C(=O)Nc3ccc(F)cc32)c1C [Sunitinib, sunitinib]
measure_name: S10x
endpoint_value: 0.038

---

Each entry below carries its reported Ka-Gini score.
# System: 222 human kinases
# procedure_details: Millipore kinase profiling (radioactive filter binding activity assay at [ATP] = KM,ATP) and selectivity metrics calculated from it
# Format: biochemical
# measurement_conditions: calculated from Millipore activity data

compound: C[S+]([O-])c1ccc(-c2nc(-c3ccncc3)c(-c3ccc(F)cc3)[nH]2)cc1 (centres unmarked)
Ka-Gini score: 0.987
--
compound: O=c1ncn2nc(Sc3ccc(F)cc3F)ccc2c1-c1c(Cl)cccc1Cl
Ka-Gini score: 0.997
--
compound: Cc1ccc(F)c(NC(=O)Nc2ccc(-c3cccc4[nH]nc(N)c34)cc2)c1
Ka-Gini score: 0.968
--
compound: Cn1c(Nc2ccc(C(F)(F)F)cc2)nc2cc(Oc3ccnc(-c4ncc(C(F)(F)F)[nH]4)c3)ccc21
Ka-Gini score: 0.982
--
compound: COc1cc2c(N3CCN(C(=O)Nc4ccc(OC(C)C)cc4)CC3)ncnc2cc1OCCCN1CCCCC1
Ka-Gini score: 0.993
--
compound: Cc1cc(Nc2cc(N3CCN(C)CC3)nc(Sc3ccc(NC(=O)C4CC4)cc3)n2)[nH]n1
Ka-Gini score: 0.972
--
compound: CCN(CCO)CCCOc1ccc2c(Nc3cc(CC(=O)Nc4cccc(F)c4)[nH]n3)ncnc2c1
Ka-Gini score: 0.993
--
compound: Cc1cn(-c2cc(NC(=O)c3ccc(C)c(Nc4nccc(-c5cccnc5)n4)c3)cc(C(F)(F)F)c2)cn1
Ka-Gini score: 0.980
--
compound: CNC(=O)c1cc(Oc2ccc(NC(=O)Nc3ccc(Cl)c(C(F)(F)F)c3)cc2)ccn1
Ka-Gini score: 0.975
--
compound: Oc1cccc(-c2nc(N3CCOCC3)c3oc4ncccc4c3n2)c1
Ka-Gini score: 0.995
--
compound: C[C@@H]1CCN(C(=O)CC#N)C[C@@H]1N(C)c1ncnc2[nH]ccc12
Ka-Gini score: 0.995
--
compound: O=C(O)c1ccc(Nc2ncc3c(n2)-c2ccc(Cl)cc2C(c2c(F)cccc2F)=NC3)cc1
Ka-Gini score: 0.980
--
compound: Cc1nc(Nc2ncc(C(=O)Nc3c(C)cccc3Cl)s2)cc(N2CCN(CCO)CC2)n1
Ka-Gini score: 0.943
--
compound: Cc1ccc(-n2nc(C(C)(C)C)cc2NC(=O)Nc2ccc(OCCN3CCOCC3)c3ccccc23)cc1
Ka-Gini score: 0.984
--
compound: COc1cc2c(Nc3ccc(Br)cc3F)ncnc2cc1OCC1CCN(C)CC1
Ka-Gini score: 0.963
--
compound: Cn1cnc2c(F)c(Nc3ccc(Br)cc3Cl)c(C(=O)NOCCO)cc21
Ka-Gini score: 1.000
--
compound: O=C(NOC[C@H](O)CO)c1ccc(F)c(F)c1Nc1ccc(I)cc1F
Ka-Gini score: 1.000

---

# Tested on: 222 human kinases
# procedure_details: Millipore kinase profiling (radioactive filter binding activity assay at [ATP] = KM,ATP) and selectivity metrics calculated from it
# Assay type: biochemical
# Set-up: scale not given here
# measurement_conditions: calculated from Millipore activity data
# Experimental: As a next step we selected 16 compounds from the public profile (Ambit), and measured activity data on these using a different profiling service (Millipore, data available as Additional file 2). […] Also for these new data, we calculated the selectivity metrics (Uitdehaag_S2). […] The Gini score was calculated from data on %-inhibition. […]
Lab note: compare selectivity score against 0.1. Equal or greater, write y. Smaller, write n.

chemical_structure: Cc1ccc(F)c(NC(=O)Nc2ccc(-c3cccc4[nH]nc(N)c34)cc2)c1
category_label: y
--
chemical_structure: COc1cc2c(N3CCN(C(=O)Nc4ccc(OC(C)C)cc4)CC3)ncnc2cc1OCCCN1CCCCC1
category_label: n
--
chemical_structure: Cc1cn(-c2cc(NC(=O)c3ccc(C)c(Nc4nccc(-c5cccnc5)n4)c3)cc(C(F)(F)F)c2)cn1
category_label: n
--
chemical_structure: O=C(O)c1ccc(Nc2ncc3c(n2)-c2ccc(Cl)cc2C(c2c(F)cccc2F)=NC3)cc1
category_label: y
--
chemical_structure: O=C(NOC[C@H](O)CO)c1ccc(F)c(F)c1Nc1ccc(I)cc1F
category_label: n
--
chemical_structure: CCN(CCO)CCCOc1ccc2c(Nc3cc(CC(=O)Nc4cccc(F)c4)[nH]n3)ncnc2c1
category_label: n
--
chemical_structure: Oc1cccc(-c2nc(N3CCOCC3)c3oc4ncccc4c3n2)c1
category_label: n
--
chemical_structure: Cc1cc(Nc2cc(N3CCN(C)CC3)nc(Sc3ccc(NC(=O)C4CC4)cc3)n2)[nH]n1
category_label: y

---

Each entry below carries its reported number of kinases inhibited below 3 μM.
# Test system: 290 kinases (excluding mutants)
# Type: binding
# measurement_conditions: Ambit profile, 290 kinases

chemical_structure: COc1cc2c(Nc3ccc(Br)cc3F)ncnc2cc1OCC1CCN(C)CC1
number of kinases inhibited below 3 μM: 79 kinases

chemical_structure: NC(=O)c1ccc(-c2nc(-c3ccc4c(c3)OCO4)c(-c3ccccn3)[nH]2)cc1
number of kinases inhibited below 3 μM: 5 kinases

chemical_structure: COc1cc2c(N3CCN(C(=O)Nc4ccc(OC(C)C)cc4)CC3)ncnc2cc1OCCCN1CCCCC1
number of kinases inhibited below 3 μM: 10 kinases

chemical_structure: CCN(CC)CCNC(=O)c1c(C)[nH]c(/C=C2\C(=O)Nc3ccc(F)cc32)c1C
number of kinases inhibited below 3 μM: 181 kinases

---

# System: 222 human kinases
# procedure_details: Millipore kinase profiling (radioactive filter binding activity assay at [ATP] = KM,ATP) and selectivity metrics calculated from it
# Assay type: biochemical
# measurement_conditions: calculated from Millipore activity data
measure_name: Pmax

chemical_structure: CNC(=O)c1cc(Oc2ccc(NC(=O)Nc3ccc(Cl)c(C(F)(F)F)c3)cc2)ccn1
target_entity: 222 human kinases
measure_name: Pmax
endpoint_value: 0.149
--
chemical_structure: C[C@@H]1CCN(C(=O)CC#N)C[C@@H]1N(C)c1ncnc2[nH]ccc12
target_entity: 222 human kinases
measure_name: Pmax
endpoint_value: 0.481
--
chemical_structure: Cc1ccc(F)c(NC(=O)Nc2ccc(-c3cccc4[nH]nc(N)c34)cc2)c1
target_entity: 222 human kinases
measure_name: Pmax
endpoint_value: 0.132
--
chemical_structure: Cc1nc(Nc2ncc(C(=O)Nc3c(C)cccc3Cl)s2)cc(N2CCN(CCO)CC2)n1
target_entity: 222 human kinases
measure_name: Pmax
endpoint_value: 0.041
--
chemical_structure: Cn1cnc2c(F)c(Nc3ccc(Br)cc3Cl)c(C(=O)NOCCO)cc21
target_entity: 222 human kinases
measure_name: Pmax
endpoint_value: 0.999
--
chemical_structure: COc1cc2c(Nc3ccc(Br)cc3F)ncnc2cc1OCC1CCN(C)CC1
target_entity: 222 human kinases
measure_name: Pmax
endpoint_value: 0.117
--
chemical_structure: O=c1ncn2nc(Sc3ccc(F)cc3F)ccc2c1-c1c(Cl)cccc1Cl
target_entity: 222 human kinases
measure_name: Pmax
endpoint_value: 0.820
--
chemical_structure: Cc1cc(Nc2cc(N3CCN(C)CC3)nc(Sc3ccc(NC(=O)C4CC4)cc3)n2)[nH]n1
target_entity: 222 human kinases
measure_name: Pmax
endpoint_value: 0.278
--
chemical_structure: Cn1c(Nc2ccc(C(F)(F)F)cc2)nc2cc(Oc3ccnc(-c4ncc(C(F)(F)F)[nH]4)c3)ccc21
target_entity: 222 human kinases
measure_name: Pmax
endpoint_value: 0.304
--
chemical_structure: O=C(NOC[C@H](O)CO)c1ccc(F)c(F)c1Nc1ccc(I)cc1F
target_entity: 222 human kinases
measure_name: Pmax
endpoint_value: 0.857
